- Test system: HepG2-GM130-SQSTM1
- Assay Info: phenotypically active (imaging signature differs from DMSO and reproducible) at any of 0.3-9 uM (binary (1 = active, 0 = inactive)); higher = active
- Experimental Setup: treatment time: 24 h
Pick one: true = active, false = inactive

**Q:** Record lookup: outcome of this test for O=C(Cc1ccc(-c2ccc(OCCN3CCOCC3)cc2)cn1)NCc1ccccc1 ?
**A:** true

**Q:** Then this molecule: CC(C)n1c(/C=C/[C@@H](O)C[C@@H](O)CC(=O)O)c(-c2ccc(F)cc2)c2ccccc21 [fluvastatin]
**A:** true

**Q:** Then this molecule: O=C(NCC1CCCCN1)c1cc(OCC(F)(F)F)ccc1OCC(F)(F)F (stereo not given) [flecainide]
**A:** false

**Q:** Then this molecule: CC(C)NCCCn1c(Sc2cc3c(cc2I)OCO3)nc2c(N)ncnc21
**A:** true

**Q:** Then this molecule: NC(=O)c1ncn([C@@H]2O[C@H](CO)[C@@H](O)[C@H]2O)c1N
**A:** false

---

Please provide measured phenotypically active for the entries that follow.
- Tested on: HepG2-TP53BP1-CLTA
- Assay Info: phenotypically active (imaging signature differs from DMSO and reproducible) at any of 0.3-9 uM (binary (1 = active, 0 = inactive)); higher = active
- Experimental Setup: treatment time: 24 h
Counter-ions that a name gives are not always drawn.
I'd appreciate a reply containing only the number, no unit.

**Q:** Which phenotypically active value is on record for C[C@]12CC[C@@H]3c4ccc(O)cc4CC[C@H]3[C@@H]1CC[C@@H]2O ?
**A:** 0

**Q:** Then this compound: C[n+]1cccc(C(=O)O)c1 [Trigonelline hydrochloride]
**A:** 0

**Q:** Then this compound: CCCN(CCC)CCc1cccc2c1CC(=O)N2
**A:** 0

**Q:** Then this compound: Nc1ccc(N=Nc2ccccc2)c(N)n1
**A:** 0

**Q:** Then this compound: COc1ccc(N(C)c2nc(C)nc3ccccc23)cc1 [MPC 6827 hydrochloride]
**A:** 1

**Q:** Then this compound: CNCCCN1c2ccccc2CCc2ccccc21
**A:** 0

**Q:** Then this compound: O=c1c(O)c(-c2ccc(O)cc2)oc2cc(O)cc(O)c12
**A:** 0

**Q:** Then this compound: CC(=O)O[C@H]1C(=O)[C@@]2(C)[C@H]([C@H](OC(=O)c3ccccc3)[C@]3(O)C[C@H](OC(=O)[C@H](O)[C@@H](NC(=O)c4ccccc4)c4ccccc4)C(C)=C1C3(C)C)[C@]1(OC(C)=O)CO[C@@H]1C[C@@H]2O
**A:** 1

---

- Tested on: HepG2-TUBA1B-RELA
- Assay Info: lowest phenotypically active concentration; higher = less potent
- Experimental Setup: treatment time: 24 h
Counter-ions that a name gives are not always drawn.
Parameter Measured: lowest phenotypically active concentration (µM)
The figure you give is taken to be in µM; do not add the unit.

**Q:** Which lowest phenotypically active concentration value is on record for Cc1nc2sccn2c(=O)c1CCN1CCC(=C(c2ccc(F)cc2)c2ccc(F)cc2)CC1 [Ritanserin] ?
**A:** 9

**Q:** Then this molecule: CN1c2ccccc2C(=O)N2CCc3c([nH]c4ccccc34)[C@H]21 [Evodiamine]
**A:** 3

**Q:** Then this molecule: CCOc1cc(N2CCC(O)CC2)ccc1Nc1ncc2c(n1)N(C)c1ccccc1C(=O)N2C
**A:** 3

**Q:** Then this molecule: COc1ccc2c(NC(=O)Nc3cccc(C(F)(F)F)n3)ccnc2c1
**A:** 3

**Q:** Then this molecule: O=C(Nc1ccccc1)N1CCC(Cc2cnc3ccccc3c2)CC1
**A:** 9

**Q:** Then this molecule: COc1ccc(S(=O)(=O)Nc2cccnc2Nc2ccc(O)cc2)cc1
**A:** 1

**Q:** Then this molecule: CCCS(=O)(=O)Nc1ccc(F)c(C(=O)c2c[nH]c3ncc(Cl)cc23)c1F
**A:** 9

**Q:** Then this molecule: CN(C)c1ccc(/C=C2\C(=O)Nc3ccccc32)cc1
**A:** 9

**Q:** Then this molecule: CC(C)(C)Nc1nc(Nc2ccc(C(N)=O)cc2)cc(N)c1C#N
**A:** 3

**Q:** Then this molecule: CC/C(=C(\CC)c1ccc(O)c(CN(CC)CC)c1)c1ccc(O)c(CN(CC)CC)c1
**A:** 1

**Q:** Then this molecule: COc1ccc(-c2cc(=O)c3c(O)cc(O)cc3o2)cc1O [Diosmetin]
**A:** 9

**Q:** Then this molecule: C#CCN[C@@H]1CCc2ccccc21 [rasagiline]
**A:** 9

**Q:** Then this molecule: COc1cc2nc(-c3cc(F)ccc3O)nc(N[C@@H]3CNC[C@H]3C(C)(C)O)c2cc1OC
**A:** 1

**Q:** Then this molecule: Cc1nc(NC(=O)N2CCC[C@H]2C(N)=O)sc1-c1csc(C(C)(C)C)n1
**A:** 3

**Q:** Then this molecule: CC(C)OC(=O)c1cc2c(OCC(O)CNC(C)(C)C)cccc2[nH]1 (stereo not drawn)
**A:** 9

**Q:** Then this molecule: CC(=O)Nc1ccc(C(=O)Nc2ccccc2N)cc1
**A:** 3

**Q:** Then this molecule: O=C(Nc1nc2cc(C(F)(F)F)cc(NC3CC3)n2n1)c1cccnc1
**A:** 9

**Q:** Then this molecule: CC(C)n1nc(-c2cc3cc(O)ccc3[nH]2)c2c(N)ncnc21
**A:** 1

**Q:** Then this molecule: COc1cc2nc(N3CCN(C(=O)c4ccco4)CC3)nc(N)c2cc1OC [prazosin]
**A:** 9

**Q:** Then this molecule: Cc1nnc(-c2ccc3occ(-c4ccc(S(C)=O)cc4)c3c2)o1 (stereo not drawn)
**A:** 3

**Q:** Then this molecule: O=C1NCCN1CCN1CCC(c2cn(-c3ccc(F)cc3)c3ccc(Cl)cc23)CC1 [sertindole]
**A:** 3

**Q:** Then this molecule: S=C(S)N1CCCC1 [Pyrrolidinedithiocarbamate ammonium]
**A:** 9

**Q:** Then this molecule: CC(C)(C)c1cc(/C=C(\C#N)C(N)=S)cc(C(C)(C)C)c1O
**A:** 9

**Q:** Then this molecule: COc1cc(O)cc(O)c1C(=O)/C=C/c1ccccc1 [Cardamonin]
**A:** 9

**Q:** Then this molecule: Cc1cc2c(F)c(Oc3ncnn4cc(OC[C@@H](C)O)c(C)c34)ccc2[nH]1 [brivanib]
**A:** 9

**Q:** Then this molecule: COc1ccc(CCNCc2ccc(OCc3ccc(Cl)nc3)c(OC)c2)cc1OC [SBE 13 hydrochloride]
**A:** 9

---

- System: HepG2-ACTB-RAB5A
- Assay Info: lowest phenotypically active concentration; higher = less potent
- Experimental Setup: treatment time: 24 h
Parameter Measured: lowest phenotypically active concentration (µM)
The figure you give is taken to be in µM; do not add the unit.

**Q:** Which lowest phenotypically active concentration value is on record for Cc1cc2nc(NCCCO)n(CC(=O)c3cc(C(C)(C)C)c(O)c(C(C)(C)C)c3)c2cc1C ?
**A:** 9

**Q:** Then this molecule: CC(CN(C)C)CN1c2ccccc2Sc2ccccc21.CC(CN(C)C)CN1c2ccccc2Sc2ccccc21 (stereo not drawn) [alimemazine]
**A:** 9

**Q:** Then this molecule: C=C1CC[C@@H]2[C@](C)(CO)[C@H](O)CC[C@@]2(C)[C@@H]1C/C=C1/C(=O)OC[C@H]1O [Andrographolide]
**A:** 3

**Q:** Then this molecule: COc1cc(OC)c2c(=O)[nH]c(-c3cc(C)c(OCCO)c(C)c3)nc2c1 [apabetalone]
**A:** 9

**Q:** Then this molecule: O=C1NC(=O)C(c2ccccc2[N+](=O)[O-])=C1Nc1ccc(O)c(Cl)c1
**A:** 9

**Q:** Then this molecule: COCCCOc1ccnc(CS(=O)c2nc3ccccc3[nH]2)c1C (stereo not drawn) [rabeprazole]
**A:** 9

**Q:** Then this molecule: C/C(=N/NC(=N)N)c1ccc(NC(=O)Nc2ccc(/C(C)=N/NC(=N)N)cc2)cc1
**A:** 3

**Q:** Then this molecule: Nc1ccc(-c2cccc3c(=O)cc(N4CCOCC4)oc23)cc1
**A:** 3

**Q:** Then this molecule: Fc1ccc([C@@H]2CCNC[C@H]2COc2ccc3c(c2)OCO3)cc1 [paroxetine]
**A:** 9

**Q:** Then this molecule: CNC(=O)c1cc(Oc2ccc(NC(=O)Nc3ccc(Cl)c(C(F)(F)F)c3)cc2)ccn1 [sorafenib]
**A:** 9

**Q:** Then this molecule: NS(=O)(=O)c1nn2cc(-c3ccccc3)nc2s1
**A:** 9

**Q:** Then this molecule: Nc1ncnc(Nc2ccc(OCc3ccccc3)c(Cl)c2)c1/C=N/OCCN1CCOCC1
**A:** 9

**Q:** Then this molecule: CN(C)CCCN1c2ccccc2Sc2ccc(C(F)(F)F)cc21 [triflupromazine]
**A:** 9
